target entity: Heat shock factor protein 1 (Mus musculus, UniProt P38532)
Sequence (P38532 whole entry): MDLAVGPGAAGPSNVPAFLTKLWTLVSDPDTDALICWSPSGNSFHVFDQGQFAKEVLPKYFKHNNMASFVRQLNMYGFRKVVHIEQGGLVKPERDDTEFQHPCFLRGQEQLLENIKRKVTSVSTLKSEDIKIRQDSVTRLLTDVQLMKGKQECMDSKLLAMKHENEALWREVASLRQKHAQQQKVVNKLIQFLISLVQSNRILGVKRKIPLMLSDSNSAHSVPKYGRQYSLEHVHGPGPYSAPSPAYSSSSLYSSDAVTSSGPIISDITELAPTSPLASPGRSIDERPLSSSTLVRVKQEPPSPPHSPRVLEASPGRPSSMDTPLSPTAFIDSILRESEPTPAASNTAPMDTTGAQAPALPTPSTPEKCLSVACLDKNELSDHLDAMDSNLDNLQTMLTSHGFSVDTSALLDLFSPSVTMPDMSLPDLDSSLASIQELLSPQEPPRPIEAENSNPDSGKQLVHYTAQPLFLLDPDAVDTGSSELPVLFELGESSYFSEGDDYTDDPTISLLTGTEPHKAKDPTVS
protocol text: inhibition of MG132-induced HSE-luciferase signal, confirmation, cell-based, NIH3T3, luminescence, dose retest (AID 2382);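 also: NIH3T3 fibroblasts with HSF1-driven luciferase reporter stressed by proteasome inhibitor MG132; luminescence from HSF1-driven luciferase expression after 8 hours of MG132 stress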
Format: functional
quantity measured: EC50

Enquiry: Identify EC50 associated with the compound CCOc1ccc(N(CC(=O)NN=C2CCCC2)S(C)(=O)=O)cc1
Return: > 195 µM (not active)

----------
In this section we review reported IC50 values for a set of molecules.
target entity: Carboxy-terminal domain RNA polymerase II polypeptide A small phosphatase 1 (Homo sapiens)
Sequence (Q9GZU7 whole entry, the tested form may be a part): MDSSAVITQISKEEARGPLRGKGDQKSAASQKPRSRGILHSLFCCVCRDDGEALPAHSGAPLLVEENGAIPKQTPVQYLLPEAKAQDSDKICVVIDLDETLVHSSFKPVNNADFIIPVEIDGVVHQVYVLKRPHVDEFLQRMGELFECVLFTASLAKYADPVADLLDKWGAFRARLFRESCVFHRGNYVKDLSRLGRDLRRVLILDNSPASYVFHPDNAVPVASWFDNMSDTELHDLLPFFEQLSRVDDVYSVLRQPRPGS
protocol text: inhibitors of CTDSP1, concentration-response testing, biochemical assay, absorbance-based, actives from ultra-high-throughput screening (AID 540297)
Assay type: functional
Activity calls are given as the source filed them.

In the examples that follow, each entry is paired with its recorded IC50.
                                   molecule                             target_entity            result
0  C[N+](C)(C)CCCN(Cc1ccc2c(c1)OCO2)C(=O)NC1CCCCC1  Carboxy-terminal domain RNA polymerase II polypeptide A small phosphatase 1 (Homo sapiens)  3.12 µM (active)
1  CCOC(=O)C1(C)C(C(=O)OC)=C(c2ccc(OC)cc2)c2ccccc2N1C(=O)OC (stereo not given)  Carboxy-terminal domain RNA polymerase II polypeptide A small phosphatase 1 (Homo sapiens)  29.5 µM (active)
2  O=C(COc1ccc([N+](=O)[O-])cc1)Nc1nnc(-c2cccnc2)s1  Carboxy-terminal domain RNA polymerase II polypeptide A small phosphatase 1 (Homo sapiens)  5.51 µM (active)
3  CC(=O)c1ccc(NC(=O)CSc2nnc(-c3ccco3)c(-c3ccco3)n2)cc1  Carboxy-terminal domain RNA polymerase II polypeptide A small phosphatase 1 (Homo sapiens)  3.88 µM (active)

Now look at this one.
Enquiry: Give me measured IC50, please, for this molecule: CCOc1ccc(/C=C2\SC(=S)N(CCC(=O)Nc3cccc(C(=O)O)c3)C2=O)cc1
Return: 3.77 µM (active)

----------
Observed AC50 values for Cytochrome P450 1A2 (Homo sapiens, UniProt P05177) are listed in what follows.

Previously resolved entries follow.
>>> df
                                   compound                  result
0              Cc1nc2cncnc2n(-c2ccccc2)c1=O    10 µM (inconclusive)
1      CCCCn1cnc2c(c(CC#N)nn2-c2ccccc2)c1=N     1 µM (inconclusive)
2  COc1ccc(C(=O)N2CCC3(CC2)CCN(c2ccncc2)CC3)cc1  39.8 µM (inconclusive)

Enquiry: Recall the reported AC50 of O=C(NCCNS(=O)(=O)c1ccccc1Cl)c1cc(OCC(F)(F)F)ccc1OCC(F)(F)F on Cytochrome P450 1A2 (Homo sapiens, UniProt P05177) and write it down.
Sequence (P05177 whole entry): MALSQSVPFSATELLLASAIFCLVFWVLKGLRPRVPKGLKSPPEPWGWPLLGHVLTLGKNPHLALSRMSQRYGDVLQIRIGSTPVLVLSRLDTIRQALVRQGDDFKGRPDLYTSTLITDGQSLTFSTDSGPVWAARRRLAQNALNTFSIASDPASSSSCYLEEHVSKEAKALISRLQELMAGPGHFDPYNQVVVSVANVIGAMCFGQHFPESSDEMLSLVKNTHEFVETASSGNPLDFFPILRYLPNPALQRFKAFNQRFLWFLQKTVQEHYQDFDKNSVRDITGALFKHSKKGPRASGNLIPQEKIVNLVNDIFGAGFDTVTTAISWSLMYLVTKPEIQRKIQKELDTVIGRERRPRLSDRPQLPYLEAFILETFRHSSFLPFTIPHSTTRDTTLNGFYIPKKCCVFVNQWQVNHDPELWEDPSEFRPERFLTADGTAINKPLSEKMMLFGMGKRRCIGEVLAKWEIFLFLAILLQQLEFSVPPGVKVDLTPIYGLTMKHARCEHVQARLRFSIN
Return: 31.6 µM (inconclusive)

Enquiry: Find the measured AC50 of CC(/C=N\NC(=O)Cn1c(C)nc2ccccc21)=C\c1ccccc1 with Cytochrome P450 1A2 (Homo sapiens, UniProt P05177) as test system.
Return: 8.91 µM (inconclusive)

----------
target entity: Protein RecA (Mycobacterium tuberculosis)
protocol text: Fluorescence Cell-Free Homogeneous Dose Retest to Identify Inhibitors of RecA-Intein Splicing Activity. [Related pubchem assays (depositor defined):AID2097, AID2223, AID489010, AID492950]
Format: functional
Activity calls are given as the source filed them.
Write down the outcome that applies. Available outcomes: t for active, f for inactive

# example entries with known answers
In [3]: df
Out[3]:
                                   molecule  class_assignment
0       O=C(CCl)N(c1ccccc1)c1c[nH]c2ccccc12                 t
1  Cc1ccc(-c2[nH]nc3c2C(c2ccc(OC(=O)N4CCOCC4)cc2)C(C#N)=C(N)O3)cc1 (stereo unspecified)                 t
2      CCOC(=O)c1c(C)oc2c1C(=O)c1ccccc1C2=O                 t
3        CCN(c1ccccc1)c1cc2ccccc2c(=O)[nH]1                 f
4                    Oc1cc(-c2ccccc2)n[nH]1                 t

# next molecule below
Enquiry: What call does the record list for CCOC(=O)c1ccc(CC2S/C(=C(\C#N)C(C)=O)NC2=O)cc1 (stereo unspecified) ?
Return: f

----------
Parameter IC50: see the listing below.
target entity: Apoptotic protease-activating factor 1 (Homo sapiens, UniProt O14727)
Sequence (O14727 whole entry): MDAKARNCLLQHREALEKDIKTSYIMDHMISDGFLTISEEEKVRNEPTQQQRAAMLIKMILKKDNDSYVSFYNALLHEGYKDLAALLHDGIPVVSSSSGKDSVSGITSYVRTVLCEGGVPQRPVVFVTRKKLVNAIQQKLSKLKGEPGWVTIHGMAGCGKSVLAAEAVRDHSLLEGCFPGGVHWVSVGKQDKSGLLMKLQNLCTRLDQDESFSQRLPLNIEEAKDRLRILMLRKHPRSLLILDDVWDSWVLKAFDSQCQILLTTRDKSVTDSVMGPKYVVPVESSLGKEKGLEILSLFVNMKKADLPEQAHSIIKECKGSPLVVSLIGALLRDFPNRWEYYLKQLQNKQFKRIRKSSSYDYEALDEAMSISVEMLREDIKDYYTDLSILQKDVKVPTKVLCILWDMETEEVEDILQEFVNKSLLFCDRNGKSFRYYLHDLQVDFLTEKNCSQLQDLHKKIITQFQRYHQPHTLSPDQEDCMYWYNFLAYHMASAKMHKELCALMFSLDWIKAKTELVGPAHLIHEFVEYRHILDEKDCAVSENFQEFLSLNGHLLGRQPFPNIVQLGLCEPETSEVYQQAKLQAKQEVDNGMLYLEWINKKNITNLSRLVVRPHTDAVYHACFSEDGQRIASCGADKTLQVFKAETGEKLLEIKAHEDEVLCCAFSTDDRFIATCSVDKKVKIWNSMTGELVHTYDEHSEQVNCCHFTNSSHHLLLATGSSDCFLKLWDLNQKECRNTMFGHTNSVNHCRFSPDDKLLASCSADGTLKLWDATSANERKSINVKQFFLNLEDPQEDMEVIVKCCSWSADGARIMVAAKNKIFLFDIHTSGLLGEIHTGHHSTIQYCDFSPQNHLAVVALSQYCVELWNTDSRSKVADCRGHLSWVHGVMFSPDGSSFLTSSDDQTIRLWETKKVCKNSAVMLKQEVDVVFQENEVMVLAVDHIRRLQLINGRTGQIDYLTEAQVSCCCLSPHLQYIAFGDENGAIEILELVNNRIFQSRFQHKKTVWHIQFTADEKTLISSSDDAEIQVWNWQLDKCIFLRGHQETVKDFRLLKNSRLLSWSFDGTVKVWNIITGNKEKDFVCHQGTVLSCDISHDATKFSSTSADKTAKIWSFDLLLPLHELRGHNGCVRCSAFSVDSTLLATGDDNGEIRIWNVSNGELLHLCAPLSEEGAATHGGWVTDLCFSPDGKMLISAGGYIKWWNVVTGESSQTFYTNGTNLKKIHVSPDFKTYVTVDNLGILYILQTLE
Assay type: functional
Calls of active or inactive are those of the source.

Known IC50 results, listed for orientation:
>>> df
                           molecular_string  quantity_measured               result
0  O=C(NC1(O)C(=O)c2ccccc2C1=O)c1ccc(C(F)(F)F)cc1               IC50     2.97 µM (active)
1      CCOC(=O)c1c(C)oc2c1C(=O)c1ccccc1C2=O               IC50     16.1 µM (active)
2        CCN(c1ccccc1)c1cc2ccccc2c(=O)[nH]1               IC50     18.7 µM (active)
3  Cc1cccc(NC(=O)CSCC(=O)N(C)Cc2ccc(Cl)c(Cl)c2)c1               IC50  > 100 µM (inactive)
4      Oc1c(Br)cc(Br)cc1/C=N/c1cccc2ncccc12               IC50       36 µM (active)

// next entry
Enquiry: Please look at O=C(NC1(O)C(=O)c2ccccc2C1=O)c1c(Cl)cccc1Cl and tell me its recorded IC50 on Apoptotic protease-activating factor 1 (Homo sapiens, UniProt O14727).
Return: 2.7 µM (active)
